# measurement_target: Focal adhesion kinase 1 (Homo sapiens)
# method_notes: small-molecule microarray binders of FAK, primary screen, biochemical, 635/667 nm fluorescence, BSA, DTT (AID 1130);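 also: composite of spot emission at 667 nm and signal to noise over triplicate slides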
# condition_context: PTK2 binding, 635 nm fluorescence, higher = more signal
endpoint: composite z-score
Please reply with the value in numeric form only.

Some entries whose results are on file:
compound: Cc1ccc(S(=O)(=O)NC(CCc2ccccc2)CC(=O)C(C)(C)C)cc1 (stereo unspecified)
composite z-score: 0.0786
//
compound: CC(C)(C)N1C(=O)[C@H]2[C@H]3[C@H](O)[C@H](O)CC(=NOCc4ccccc4)[C@H]3CC[C@H]2C1=O
composite z-score: -0.103
//
compound: CCOC(=O)[C@H](CC(C)C)NC(=O)CCC1CC(OC(=O)NCc2cccc3ccccc23)CC2(CCCC(COC(=O)NCCC(C)C)O2)O1 (stereo partly specified)
composite z-score: -0.394

IN: Which composite z-score reading was recorded for the compound C#CCCCON=C1C[C@@H](O)[C@@H](O)[C@@H]2[C@@H]3C(=O)N(c4ccc(F)cc4F)C(=O)[C@@H]3CC[C@H]12 ?
OUT: 0.208

IN: Quick one: composite z-score for COc1cccc([C@H]2Oc3ccc(OC)cc3C(=NO[C@@H]3O[C@H](COC(C)=O)[C@@H](OC(C)=O)[C@H](OC(C)=O)[C@H]3OC(C)=O)[C@@H]2O)c1 ?
OUT: 0.478

###

# method_notes: PSAC antagonists in infected red cells, primary screen, cell-based, P. falciparum Indochina, OD700, 1 h (AID 1154)
# condition_context: P. falciparum Indochina infected RBC osmotic lysis, called active from +8 up or from −8 down
Active and inactive are the calls of the source.
Your reply should match one of these outcome classes. active, inactive

Solved cases (5 shown):
molecule: COc1ccc(O[C@@H]2[C@H](O)CO[C@@H]2C=Cc2ccccc2)cc1
qualitative_label: inactive
//
molecule: COc1ccc(O[C@H]2C=C[C@@H](c3ccccc3)O[C@@H]2COC(=O)CCC(C)=NOC[C@@H](O)[C@H]2O[C@@H]3OC(C)(C)O[C@@H]3[C@H]2O)cc1
qualitative_label: inactive
//
molecule: C=CC[C@@H]1C=C[C@H](ON=C(C)CCC(=O)OC[C@H]2O[C@H](c3ccccc3)C=C[C@@H]2Oc2ccc(OC)cc2)[C@@H](CO)O1
qualitative_label: active
//
molecule: C[C@@H](ON=C1[C@H]2CCn3c(=O)n(-c4ccccc4)c(=O)n3[C@H]2[C@H](O)[C@@H]2O[C@H]12)c1cn([C@@H]2COC[C@H]2O)nn1
qualitative_label: inactive
//
molecule: C[n+]1ccc(-c2ccc(CO)cc2)cc1
qualitative_label: inactive

IN: Which outcome was entered for the molecule CCN1C(=O)[C@H]2[C@H]3[C@H](O)[C@H](O)CC(=NOC[C@H]4O[C@H](c5ccccc5)C=C[C@@H]4Oc4ccc(OC)cc4)[C@@H]3CC[C@H]2C1=O in this test?
OUT: active

IN: What call does the record list for CCOC(=O)[C@H](Cc1ccccc1)NC(=O)CCC1CC(OC(=O)NCCc2ccc(F)cc2)CC2(CCCC(COC(=O)NCc3ccccc3)O2)O1 (stereo not given in full) ?
OUT: inactive

IN: What was the test verdict on COC(=O)[C@@H]1CC[C@@H](C)[C@H](c2ccc(Br)cc2)N1 ?
OUT: inactive

IN: I would be grateful if you could indicate the recorded call for COc1ccc(COC(=O)NN=C2C[C@@H](O)[C@@H](O)[C@@H]3[C@@H]4C(=O)N(c5cccc(Oc6ccccc6)c5)C(=O)[C@@H]4CC[C@@H]23)cc1 .
OUT: inactive

###

# measurement_target: Concanavalin-A (Canavalia ensiformis) (UniProt P02866)
# Sequence (P02866 whole entry, looked up): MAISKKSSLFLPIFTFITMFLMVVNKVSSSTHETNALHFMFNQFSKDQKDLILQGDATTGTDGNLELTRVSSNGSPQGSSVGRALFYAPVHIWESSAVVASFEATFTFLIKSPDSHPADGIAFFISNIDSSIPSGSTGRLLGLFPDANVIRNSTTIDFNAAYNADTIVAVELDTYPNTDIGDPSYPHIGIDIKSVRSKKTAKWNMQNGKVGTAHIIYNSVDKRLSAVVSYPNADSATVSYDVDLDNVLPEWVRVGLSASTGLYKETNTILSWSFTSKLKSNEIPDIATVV
# method_notes: ConA small-molecule binders, primary screen, artefact control for SMM control protein annotation, biochemical, small-molecule microarray, Alexa647 label, 635 nm (AID 1127);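 also: z combines 667 nm emission intensity with signal-to-noise across three replicate slides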
# condition_context: ConA-A647 binding fluorescence, higher = more signal
endpoint: composite z-score

IN: Provide the documented composite z-score with Concanavalin-A (Canavalia ensiformis) (UniProt P02866) as the system for CCN1C(=O)[C@H]2[C@H]3[C@H](O)[C@H](O)CC(=O)[C@@H]3CC[C@H]2C1=O
OUT: 0.735

IN: Please state recorded composite z-score (tested on Concanavalin-A (Canavalia ensiformis) (UniProt P02866)) of O=C(NN=C1C[C@@H](O)[C@@H](O)[C@@H]2[C@@H]3C(=O)N(C4CCCCC4)C(=O)[C@@H]3CC[C@@H]12)OCc1ccccc1
OUT: 0.457

IN: Recorded composite z-score for C#CCCCON=C1C[C@@H](O)[C@@H](O)[C@@H]2[C@@H]3C(=O)N(CCC(=O)OCC)C(=O)[C@@H]3CC[C@H]12 with Concanavalin-A (Canavalia ensiformis) (UniProt P02866), please?
OUT: 1.07

IN: Write down the reported composite z-score of CO[C@H]1COC(=O)CC=C[C@H](C)[C@@H](OC)COC(=O)[C@@H](C)COC(=O)CC=C[C@@H]1C , test system: Concanavalin-A (Canavalia ensiformis) (UniProt P02866).
OUT: -1.85

###

# method_notes: small-molecule microarray binders of probe aDKK1, primary screen, biochemical, biotinylated probe, 635/667 nm fluorescence (AID 1099);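 also: score merges 667nm spot fluorescence with signal to noise across triplicate slides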
# condition_context: higher = more signal
endpoint: composite z-score

molecule: COc1cccc([C@H]2Oc3ccc(OC)cc3C(=NOC[C@@H](O)[C@H]3O[C@@H]4OC(C)(C)O[C@@H]4[C@H]3O)[C@@H]2O)c1
measurement: -0.389
--
molecule: CO[C@H]1COC(=O)CC=C[C@@H](C)[C@H](NS(=O)(=O)c2ccc(C)cc2)COC(=O)CCC[C@@H]1C
measurement: -0.233
--
molecule: CCCNC(=O)OC[C@H]1O[C@H](CCON=C(C)C)C=C[C@@H]1Oc1ccc(OC)cc1
measurement: 0.325
--
molecule: C[C@@H]1CC[C@H]2C(=O)O[C@@H](Cc3ccccc3)CN2[C@H]1c1ccc(Br)cc1
measurement: 0.14
--
molecule: Cc1cc2c(c(=O)o1)[C@@H](O)[C@H]1O[C@H]1C2=O
measurement: -0.145

IN: Item O=C1CCCC=C1C(O)CCCCBr (stereo not drawn) has what recorded composite z-score?
OUT: 0.763

IN: What composite z-score value was documented for this molecule, COC(=O)[C@H](C)NC(=O)CCC1CC(OC(=O)NCc2ccc3c(c2)OCO3)CC2(CCCC(COC(=O)NCc3cccc(C(F)(F)F)c3)O2)O1 (stereo partly drawn) ?
OUT: 0.114

IN: Item under review: CCOC(=O)[C@H](Cc1ccccc1)NC(=O)CCC1CC(OC(=O)NCc2ccc3c(c2)OCO3)CC2(CCCC(COC(=O)NCCc3ccccc3OC)O2)O1 (stereo partly drawn) . Reported composite z-score?
OUT: -0.0864

###

// reported z-score for each item listed
# measurement_target: NADPH oxidase 4 (Homo sapiens)
# method_notes: NOX4-dependent H2O2 signal modulators, primary screen, NOX inhibitor project, cell-based, HEK293-NOX4, tetracycline-induced, Amplex Red fluorescence (AID 1160)
# condition_context: 45 min, higher = more signal, called active from +8 up or from −8 down
The source made the active and inactive calls.

Examples from the recorded data:
compound: CCOC(=O)[C@H](CC(C)C)NC(=O)CCC1CC(OC(=O)NCCc2ccc(F)cc2)CC2(CCCC(COC(=O)NCCc3ccc(Cl)cc3)O2)O1 (some centres not stated)
z-score: 1.32 (inactive)
--
compound: CC(CCN1CCc2nc(-c3ccccc3)c(-c3ccccc3)cc2C1)=NOC[C@@H](O)[C@H]1O[C@@H]2OC(C)(C)O[C@@H]2[C@H]1O
z-score: -1.69 (inactive)
--
compound: CCN1C(=O)[C@H]2[C@H]3[C@H](O)[C@H](O)CC(=NOC[C@H]4O[C@H](c5ccccc5)C=C[C@@H]4Oc4ccc(OC)cc4)[C@@H]3CC[C@H]2C1=O
z-score: 0.91 (inactive)
--
compound: CC(=O)OC[C@H]1O[C@H](CC=NO[C@H](C)c2cn([C@H](CO)Cc3ccccc3)nn2)C=C[C@@H]1OC(C)=O
z-score: 0.835 (inactive)

IN: // query z-score value for entry COC(=O)CC=C[C@@H](C)[C@@H](C=NOC[C@H]1O[C@H](c2ccccc2)C=C[C@@H]1Oc1ccc(OC)cc1)OC
OUT: 0.338 (inactive)

IN: Which z-score is listed for C[C@H]1Cc2c(COc3ccccc3)nc3c(c2CO1)CN(CCOc1ccccc1)CC3 ?
OUT: 0.191 (inactive)

IN: Would you kindly share the measured z-score for CSCC[C@@H]1NC(=O)CC=C[C@@H](C)COC(=O)[C@@H](C)COC1=O ?
OUT: 0.279 (inactive)

###

# method_notes: basal RPMI8226 mitochondrial membrane potential changes, profiling panel, cell-based, JC-1 fluorescence, 24 h, 100 nL compound (AID 1169); also: test concentration not given here
# condition_context: RPMI8226 myeloma, JC-1 mitochondrial potential fluorescence, higher = more signal
Catalogue of z-score values
// keep it numeric: no unit symbol after the value

compound: CCOC(=O)NN=C1C[C@@H](O)[C@@H](O)[C@@H]2[C@@H]3C(=O)N(c4cccc(Oc5ccccc5)c4)C(=O)[C@@H]3CC[C@@H]12
z-score: -0.0715
--
compound: COC(=O)CC=C[C@@H](C)[C@@H](C=NOCC[C@@H]1C=C[C@H](OC(C)=O)[C@@H](COC(C)=O)O1)NS(=O)(=O)c1ccc(C)cc1
z-score: 0.533

IN: I have this compound here, CO[C@@H]1C=CCC(=O)N2CCC[C@H]2C(=O)OC[C@@H](C)C(=O)OC[C@H]1C , and I need its recorded z-score.
OUT: -0.257

IN: Given the entry CC(C)=CCCC(C)=CCON=C1C[C@@H](O)[C@@H](O)[C@@H]2[C@@H]3C(=O)N(Cc4ccccc4)C(=O)[C@@H]3CC[C@@H]12 , report its measured z-score.
OUT: -0.11

IN: For the compound shown here, CC(=O)OC[C@H]1O[C@H](CCON=C2[C@H]3CCn4c(=O)n(-c5ccccc5)c(=O)n4[C@H]3[C@H](O)[C@@H]3O[C@H]23)C=C[C@@H]1OC(C)=O , give the reported z-score.
OUT: 0.602

IN: Quick check: z-score of CCOC(=O)[C@H](CC(C)C)NC(=O)CCC1CC(OC(=O)NCc2ccc3c(c2)OCO3)CC2(CCCC(COC(=O)NCc3cccc(C(F)(F)F)c3)O2)O1 (stereo partly specified) ?
OUT: 0.525

IN: Please give the measured z-score for this compound: CCOC(=O)[C@H](CC(C)C)NC(=O)CCC1CC(OC(=O)NCc2ccc3c(c2)OCO3)CC2(CCCC(COC(=O)NCC3CCCCC3)O2)O1 (stereo partly specified)
OUT: -0.247

IN: For COc1cccc([C@H]2Oc3ccc(OC)cc3C(=NO[C@@H](C)c3cn([C@H](CO)Cc4ccccc4)nn3)[C@@H]2O)c1 , what is its reported z-score?
OUT: -0.722
